SYSTEM UNDER TEST: T1, recombinant human IL-23R/Fc chimera (R&D Systems) (human, UniProt Q5VWK5 24-353)
T1 construct: bought; also called human IL-23R/Fc fusion protein; rhIL23RFc
T1 sequence (looked up): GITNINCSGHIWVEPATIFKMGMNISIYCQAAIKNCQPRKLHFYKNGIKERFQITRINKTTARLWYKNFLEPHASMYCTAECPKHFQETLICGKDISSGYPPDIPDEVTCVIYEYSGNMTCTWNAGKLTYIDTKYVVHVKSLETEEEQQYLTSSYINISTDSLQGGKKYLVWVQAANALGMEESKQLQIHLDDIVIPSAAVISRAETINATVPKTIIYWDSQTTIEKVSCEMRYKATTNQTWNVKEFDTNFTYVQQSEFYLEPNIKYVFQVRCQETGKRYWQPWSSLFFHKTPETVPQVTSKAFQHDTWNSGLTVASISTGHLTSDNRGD
MEASUREMENT NOTES: competition ELISA against IL-23
Listed below: Ratio IC50 to 056-53.H4E IC50 values for each entry.
Form entry: value (ratio) — number only.

101-51-1A5 ATRIMER (designed binder) EPPTQKPKKIVNAKKDVVNTKMFEELKSRLDTLAQEVALLKEQQALQTVCLKGTKVHMKCFLAFTQTKTFHEASEDCISRGGTLSTPQTGSENDALYEYLRQSVGNEAEIWLGLNGSALTNTWVDMTGARIAYKNWENGHEPQPRGGFGYFGENCAVLSGAANGKWFDKRCRDQLPYICQFGIV; 1

Now consider a different binder.
-- ask Return the recorded Ratio IC50 to 056-53.H4E IC50 value; entry: 105-08-1A8 ATRIMER (designed binder, not shown: C-terminal tag: Myc/His6 (pANA4) or HA-StrepII (pANA10); A Ser left at the ompA junction may also sit at the N-terminus) EPPTQKPKKIVNAKKDVVNTKMFEELKSRLDTLAQEVALLKEQQALQTVCLKGTKVHMKCFLAFTQTKTFHEASEDCISRGGTLSTPQTGSENDALYEYLRQSVGNEAEIWLGLNGSPRTNTWVDMTGARIAYKNWETEITAQPDGGFGVFGENCAVLSGAANGKWFDKRCRDQLPYICQFGIV
-- reply 1.6
